# ASSAY_REMARKS: Inhibitor binding assay of SEQ ID NO 3 variants, Inhibitor 2, in Model B detergent
# Type: biochemical
# EXPERIMENTAL_CONDITIONS: in Model B relative to SEQ ID NO 3; relative Ki, IF>1.0 = lower Ki
TEST_READOUT: inhibitor 2 binding constant improvement factors (IF)
Field format: numeric only.

Enquiry: Fill in: inhibitor 2 binding constant improvement factors (IF) of S111E: protease variant of SEQ ID NO 3 (protein, listed as Bacillus sp.) AVPSTQTPWGIKSIYNDQSITKTTGGSGIKVAVLDTGVYTSHLDLAGSAEQCKDFTQSNPLVDGSCTDRQGHGTHVAGTVLAHGGSNGQGVYGVAPQAKLWAYKVLGDNGEGYSDDIAAAIRHVADEASRTGSKVVINMSLGSSAKDSLIASAVDYAYGKGVLIVAAAGNSGSGSNTIGFPGGLVNAVAVAALENVQQNGTYRVADFSSRGNPATAGDYIIQERDIEVSAPGASVESTWYTGGYNTISGTSMATPHVAGLAAKIWSANTSLSHSQLRTELQNRAKVYDIKGGIGAGTGDDYASGFGYPRVK is ___
Return: 1.23
